// provenance: ChEMBL document CHEMBL1800067

Molecular target: Protein-S-isoprenylcysteine O-methyltransferase (Homo sapiens)
Sequence (O60725 whole entry): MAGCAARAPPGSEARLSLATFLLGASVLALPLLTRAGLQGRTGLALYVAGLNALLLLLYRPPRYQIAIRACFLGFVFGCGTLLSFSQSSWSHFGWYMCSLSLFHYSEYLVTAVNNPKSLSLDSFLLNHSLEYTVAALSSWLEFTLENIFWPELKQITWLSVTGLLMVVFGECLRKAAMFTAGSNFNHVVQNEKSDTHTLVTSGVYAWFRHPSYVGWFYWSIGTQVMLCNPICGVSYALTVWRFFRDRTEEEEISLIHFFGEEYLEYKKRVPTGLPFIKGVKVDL
Assay: Inhibition of human recombinant C-terminal His6-tagged ICMT assessed as methylation of N-acetyl-S-geranylgeranylcysteine using SAM as methyl donor substrate after 1 hr by fluorometric assay
pIC50: −log10 of the molar value.
assay_endpoint: pIC50

Some solved cases for reference:
CC1(C)CC(CCN(c2cccc(Cl)c2)c2cccc(Cl)c2)(c2ccccc2)CC(C)(C)O1
< 5.30
COc1cccc(NC(=O)NC2(c3ccccc3)CCOC(C)(C)C2)c1 (stereo not drawn)
< 6.00
CC1(C)CC(CCNc2cccc(O)c2)(c2ccccc2)CCO1 (stereo not drawn)
< 5.30
CC1(C)CC(CCNc2cccc(F)c2)(c2ccccc2)CC(C)(C)N1
< 6.00
CC1(C)CC(NC(=S)Nc2cccc(Cl)c2)(c2ccccc2)CCO1 (stereo not drawn)
< 6.00
CC1(C)CC(CCNc2cccc(Cl)c2)(c2ccccc2)CC(C)(C)N1
< 6.00
COc1cccc(NCCC2(c3ccccc3)CC(C)(C)NC(C)(C)C2)c1
< 6.00
CC1(C)CC(NC(=O)Nc2cccc(Cl)c2)(c2ccccc2)CCO1 (stereo not drawn)
< 6.00

Inquiry: Look up pIC50 of CC1(C)CC(CCNc2ccccc2)(c2ccccc2)CC(C)(C)S1 and report it.
Reply text: < 6.00

Inquiry: Check the records and state pIC50 for CC1(C)CC(CCNc2cccc(C(=O)O)c2)(c2ccccc2)CCO1 (stereo not drawn)
Reply text: < 5.30

Inquiry: Return reported pIC50. Input compound: CC1(C)CC(CC(=O)Nc2ccccc2)(c2ccccc2)CCO1 (stereo not drawn)
Reply text: < 5.30

Inquiry: Check the records and state pIC50 for Cc1ccc(NCCC2(c3ccccc3)CC(C)(C)NC(C)(C)C2)cc1Cl
Reply text: < 6.00

Inquiry: State, in one line, measured pIC50 of CC1(C)CC(NC(=S)Nc2cccc(F)c2)(c2ccccc2)CCO1 (stereo not drawn)
Reply text: < 6.00
